Origin of the recorded values: ChEMBL document CHEMBL5724914

- experiment.summary: The drug is tested on Z-023 corresponding to metagenome with ENA study accession number: PRJEB37062 and ENA sample accession number: ERS12561822 for biotransformation under anaerobic condition. The drug concentrations were measured over 9 timepoints collected between 0 and 24 hours of incubation by liquid-chromatography-coupled mass spectrometry (LC–MS); further: call rule not given here
- setup.conditions: 2 µM

compound | Bacterial Biotransformation
CCCCCCOC(=O)/N=C(/N)c1ccc(NCc2nc3cc(C(=O)N(CCC(=O)OCC)c4ccccn4)ccc3n2C)cc1.CS(=O)(=O)O [DABIGATRAN ETEXILATE MESYLATE] | Compound NOT metabolized
CCCC1O[C@@H]2C[C@H]3[C@@H]4CCC5=CC(=O)C=C[C@]5(C)[C@H]4[C@@H](O)C[C@]3(C)[C@]2(C(=O)CO)O1 (some centres undefined) [BUDESONIDE] | Compound NOT metabolized
CNCCC(Oc1ccc(C(F)(F)F)cc1)c1ccccc1 (centres undefined) [FLUOXETINE] | Compound NOT metabolized
